Just for reference, paper PMC5645246 is where these values come from.

Target: α1β3γ2L GABAA receptors (Homo sapiens, UniProt P14867+P18507+P28472)
Sequence (P14867 28-456): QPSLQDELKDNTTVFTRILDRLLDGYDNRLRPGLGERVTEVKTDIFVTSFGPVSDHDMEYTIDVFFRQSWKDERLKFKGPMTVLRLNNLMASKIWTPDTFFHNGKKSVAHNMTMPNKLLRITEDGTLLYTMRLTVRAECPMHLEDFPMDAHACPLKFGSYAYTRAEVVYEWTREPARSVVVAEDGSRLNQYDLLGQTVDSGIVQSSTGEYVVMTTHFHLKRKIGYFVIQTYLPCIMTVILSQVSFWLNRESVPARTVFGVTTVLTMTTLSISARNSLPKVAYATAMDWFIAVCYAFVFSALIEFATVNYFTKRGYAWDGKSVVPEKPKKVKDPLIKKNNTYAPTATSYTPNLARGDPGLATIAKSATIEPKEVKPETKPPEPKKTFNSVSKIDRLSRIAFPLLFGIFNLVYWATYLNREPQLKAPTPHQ
Sequence (P28472 26-473): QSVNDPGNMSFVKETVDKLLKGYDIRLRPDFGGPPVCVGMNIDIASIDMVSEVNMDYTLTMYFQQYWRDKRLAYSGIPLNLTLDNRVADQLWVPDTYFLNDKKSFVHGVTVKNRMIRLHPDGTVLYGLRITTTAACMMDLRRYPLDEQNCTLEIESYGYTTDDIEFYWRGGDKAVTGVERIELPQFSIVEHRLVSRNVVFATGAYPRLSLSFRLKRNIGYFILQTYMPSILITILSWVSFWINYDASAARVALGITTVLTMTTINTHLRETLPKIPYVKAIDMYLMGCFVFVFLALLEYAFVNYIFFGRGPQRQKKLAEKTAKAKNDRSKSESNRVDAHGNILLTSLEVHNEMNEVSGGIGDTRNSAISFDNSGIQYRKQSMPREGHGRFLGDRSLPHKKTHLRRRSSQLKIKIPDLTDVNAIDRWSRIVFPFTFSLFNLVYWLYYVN
Sequence (P18507 40-475): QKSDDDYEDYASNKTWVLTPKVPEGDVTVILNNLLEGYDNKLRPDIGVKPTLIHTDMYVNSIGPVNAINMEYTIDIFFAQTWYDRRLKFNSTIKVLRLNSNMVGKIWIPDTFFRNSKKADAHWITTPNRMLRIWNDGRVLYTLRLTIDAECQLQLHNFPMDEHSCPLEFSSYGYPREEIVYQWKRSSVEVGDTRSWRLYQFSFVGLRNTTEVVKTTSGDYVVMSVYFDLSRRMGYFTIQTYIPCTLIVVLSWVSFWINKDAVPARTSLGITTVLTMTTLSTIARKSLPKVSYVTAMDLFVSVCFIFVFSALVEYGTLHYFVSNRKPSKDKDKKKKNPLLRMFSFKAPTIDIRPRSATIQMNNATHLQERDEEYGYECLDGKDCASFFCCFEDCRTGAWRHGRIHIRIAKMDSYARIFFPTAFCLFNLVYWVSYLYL
Settings: EC50 for propofol potentiation of EC5 GABA-evoked currents, absence of naphthalene-etomidate; minimum constrained to 5%
measuredQuantity: pEC50
# reply with the number alone; pEC50 is -log10 of concentration in mol/L

## Task State the recorded pEC50 for this entry: CC(C)c1cccc(C(C)C)c1O [propofol]
## Result 5.22
